This listing pairs sequences with measured phosphorylation enrichment.
TARGET_OR_SYSTEM: Fyn (UniProt P06241)
Sequence (P06241 whole entry, looked up): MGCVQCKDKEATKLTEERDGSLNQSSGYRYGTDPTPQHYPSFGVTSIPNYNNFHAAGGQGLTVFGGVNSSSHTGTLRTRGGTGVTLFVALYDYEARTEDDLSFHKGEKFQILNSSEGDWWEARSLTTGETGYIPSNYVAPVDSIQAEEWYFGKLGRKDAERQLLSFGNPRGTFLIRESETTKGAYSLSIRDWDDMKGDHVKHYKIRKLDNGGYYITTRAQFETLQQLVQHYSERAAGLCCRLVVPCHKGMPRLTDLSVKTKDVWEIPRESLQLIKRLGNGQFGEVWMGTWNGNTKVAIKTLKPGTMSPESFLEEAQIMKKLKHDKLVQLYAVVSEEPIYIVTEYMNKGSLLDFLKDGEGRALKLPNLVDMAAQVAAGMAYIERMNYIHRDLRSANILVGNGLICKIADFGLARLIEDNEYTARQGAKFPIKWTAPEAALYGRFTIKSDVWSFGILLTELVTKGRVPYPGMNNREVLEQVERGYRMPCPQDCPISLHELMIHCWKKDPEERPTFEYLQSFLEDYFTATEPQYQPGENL
EXPERIMENT_NOTES: phosphorylation enrichment, bacterial display (enrichment ratio); higher = better substrate or ligand; peptides without Tyr show the background
Give a plain numeric answer without units written out.

[[record]]
sequence_entry = "IIGNGYFFHVF [MYBPC3_Y1135_R1138H_YF]"
measurement_type = "phosphorylation enrichment"
measured_result = 0.313

[[record]]
sequence_entry = "SAGSSYSISVI [PAX5_Y179_G183V]"
measurement_type = "phosphorylation enrichment"
measured_result = 0.688

[[record]]
sequence_entry = "YGSGNYNVFGN [HNRNPA2B1_Y300_D302V]"
measurement_type = "phosphorylation enrichment"
measured_result = 0.76


Shifting focus to the sequence that follows.
Challenge: Requested field: phosphorylation enrichment. Item: RAMRRYLERGE [ERBB3_Y680]
Response given: 0.608

----------
TARGET_OR_SYSTEM: Fes (UniProt P07332)
Sequence (P07332 whole entry, looked up): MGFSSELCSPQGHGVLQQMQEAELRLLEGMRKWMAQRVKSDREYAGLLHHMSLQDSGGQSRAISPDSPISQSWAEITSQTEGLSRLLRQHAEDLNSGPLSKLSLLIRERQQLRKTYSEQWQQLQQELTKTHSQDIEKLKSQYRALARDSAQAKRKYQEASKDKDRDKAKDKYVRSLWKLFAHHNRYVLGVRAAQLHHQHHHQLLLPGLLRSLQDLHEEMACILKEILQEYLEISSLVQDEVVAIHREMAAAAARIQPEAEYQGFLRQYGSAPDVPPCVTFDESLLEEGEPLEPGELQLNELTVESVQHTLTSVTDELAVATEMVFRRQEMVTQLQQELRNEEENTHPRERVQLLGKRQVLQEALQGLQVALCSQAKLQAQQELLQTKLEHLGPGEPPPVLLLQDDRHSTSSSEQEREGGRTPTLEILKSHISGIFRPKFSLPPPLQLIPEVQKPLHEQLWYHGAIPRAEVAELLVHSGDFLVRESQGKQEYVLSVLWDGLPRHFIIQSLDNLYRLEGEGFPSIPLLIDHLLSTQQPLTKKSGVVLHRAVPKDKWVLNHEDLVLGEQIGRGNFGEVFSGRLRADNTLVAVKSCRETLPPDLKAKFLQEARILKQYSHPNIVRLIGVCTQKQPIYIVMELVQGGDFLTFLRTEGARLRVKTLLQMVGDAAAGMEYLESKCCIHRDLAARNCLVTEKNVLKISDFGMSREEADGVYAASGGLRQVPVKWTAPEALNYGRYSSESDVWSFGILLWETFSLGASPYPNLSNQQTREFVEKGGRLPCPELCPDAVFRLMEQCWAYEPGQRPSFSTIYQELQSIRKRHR
EXPERIMENT_NOTES: phosphorylation enrichment, bacterial display (enrichment ratio); higher = better substrate or ligand; peptides without Tyr show the background
Label scheme for phosphorylation enrichment: lower than 1 is Criterion not met, 1 and above is Criterion met.

For orientation, consider the following solved cases.
[[record]]
sequence_entry = "PVDTFYDSTRG [DYNC2H1_Y2231_M2227V_YF]"
answer_label = "Criterion not met"

[[record]]
sequence_entry = "CDDGKYVFVVT [RPS6KA3_Y488_Y483C_YF]"
answer_label = "Criterion met"

[[record]]
sequence_entry = "LAAAKYKLNVD [SMARCA2_Y1190]"
answer_label = "Criterion not met"

[[record]]
sequence_entry = "VPLLEYFWDIF [CDAN1_Y712_R714W_YF]"
answer_label = "Criterion met"

[[record]]
sequence_entry = "PGAPAYCVLME [MYO5A_Y1245_R1246C]"
answer_label = "Criterion met"


Query sequence follows.
Challenge: Check if phosphorylation enrichment >= 1 (inclusive). Item: CSDPSYVKQME [CDC5L_Y464_Y459C]
Response given: Criterion met

----------
TARGET_OR_SYSTEM: MERTK (UniProt Q12866)
Sequence (Q12866 whole entry, looked up): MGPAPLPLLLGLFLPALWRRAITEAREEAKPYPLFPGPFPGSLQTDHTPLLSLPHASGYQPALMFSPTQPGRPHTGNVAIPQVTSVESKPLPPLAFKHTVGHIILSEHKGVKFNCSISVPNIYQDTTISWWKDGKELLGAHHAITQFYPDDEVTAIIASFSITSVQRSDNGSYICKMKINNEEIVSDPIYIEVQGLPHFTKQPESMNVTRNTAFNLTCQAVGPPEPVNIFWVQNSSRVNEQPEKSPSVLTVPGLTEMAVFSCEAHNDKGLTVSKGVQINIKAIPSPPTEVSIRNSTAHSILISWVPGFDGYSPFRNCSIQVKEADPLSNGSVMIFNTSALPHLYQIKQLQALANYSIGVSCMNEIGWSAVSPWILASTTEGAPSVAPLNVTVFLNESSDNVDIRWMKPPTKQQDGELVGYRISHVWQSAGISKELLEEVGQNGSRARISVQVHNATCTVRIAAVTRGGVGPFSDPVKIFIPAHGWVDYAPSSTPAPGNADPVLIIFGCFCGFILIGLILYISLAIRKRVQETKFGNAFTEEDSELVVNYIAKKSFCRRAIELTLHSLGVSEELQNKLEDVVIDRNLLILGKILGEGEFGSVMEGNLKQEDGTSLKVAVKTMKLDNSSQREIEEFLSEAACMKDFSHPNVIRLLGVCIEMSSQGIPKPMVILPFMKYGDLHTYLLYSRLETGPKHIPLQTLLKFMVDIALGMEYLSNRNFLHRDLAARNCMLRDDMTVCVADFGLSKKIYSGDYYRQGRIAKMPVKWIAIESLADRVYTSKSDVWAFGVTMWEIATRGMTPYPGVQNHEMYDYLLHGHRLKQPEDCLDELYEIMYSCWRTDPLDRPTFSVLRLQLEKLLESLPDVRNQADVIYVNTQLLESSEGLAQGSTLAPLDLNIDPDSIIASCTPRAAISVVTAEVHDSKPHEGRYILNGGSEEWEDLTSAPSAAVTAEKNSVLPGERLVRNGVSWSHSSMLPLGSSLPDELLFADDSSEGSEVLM
EXPERIMENT_NOTES: phosphorylation enrichment, bacterial display (enrichment ratio); higher = better substrate or ligand; peptides without Tyr show the background
Label scheme for phosphorylation enrichment: lower than 0.6 is false, 0.6 and above is true.

For orientation, consider the following solved cases.
[[record]]
sequence_entry = "RRIHSYRGRLW [VHL_Y112_H115R]"
answer_label = "false"

[[record]]
sequence_entry = "IVLRSYPASDH [NID2_Y449_G453D]"
answer_label = "false"

[[record]]
sequence_entry = "PTFKHYANSTQ [SLC12A3_Y70_E68K_YF]"
answer_label = "false"

[[record]]
sequence_entry = "VILENYGADID [DNAH5_Y596_L591V]"
answer_label = "true"

[[record]]
sequence_entry = "EPGSLYGCGGG [ATM_Y2019_D2016G]"
answer_label = "true"

[[record]]
sequence_entry = "YTGDIYSNSNL [LZTR1_Y141]"
answer_label = "true"


Query sequence follows.
Challenge: Check if phosphorylation enrichment >= 0.6 (inclusive). Item: ARGTRYRYVSQ [UCN3_Y95]
Response given: false

----------
Tested on: AncSZ
EXPERIMENT_NOTES: phosphorylation enrichment, bacterial display (enrichment ratio); higher = better substrate or ligand; peptides without Tyr show the background
This listing pairs sequences with measured phosphorylation enrichment.
Give a plain numeric answer without units written out.

Solved cases below.
[[record]]
sequence_entry = "LVMFIDAIFGM [SCN1A_Y1684_Y1684D]"
target_or_system = "AncSZ"
measured_result = 2.28

[[record]]
sequence_entry = "ASGKYYAMKIL [AKT3_Y174]"
target_or_system = "AncSZ"
measured_result = 0.664


Challenge: API: value(readout=phosphorylation enrichment, system=AncSZ) for record NLVSEYQQFQD [TUBB3_Y422_D417N_YF]
Response given: 1.17

Challenge: Entry ANSSFHSTRSA [NUMA1_Y1836_Y1836H] please
Response given: 0.597

----------
TARGET_OR_SYSTEM: SHP2-C SH2;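 further: peptide library displayed on the E. coli surface as eCPX fusions, selected cells deep-sequenced, score is each peptide's frequency after selection divided by its frequency in the input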
EXPERIMENT_NOTES: SH2 binding enrichment of the phosphorylated peptide, bacterial display (enrichment ratio); higher = better substrate or ligand; peptides without Tyr show the background
Range-based classes on measured SH2 binding enrichment: L = under 0.6, M = from 0.6 up to 0.8, H = 0.8 and over

Challenge: Please classify: RAMRRYLERGE [ERBB3_Y680]
Response given: L

Challenge: Entry KRIKSYNQEND [RPGRIP1L_Y448_L447S] please
Response given: M

Challenge: Entry TILEHYRRTHC [MYBPC3_Y1119_V1115I] please
Response given: H

Challenge: Entry APAHKYHGGGG [HBD_Y146_L142P] please
Response given: M

Challenge: Entry CLNAIYQNNLT [GSR_Y158_R153C] please
Response given: M

Challenge: Entry PSALGYSPSLR [LLGL2_Y40] please
Response given: H

Challenge: Entry HKLSFYEFDFE [BTK_Y40_YF] please
Response given: H

Challenge: Entry LEIETCRRLLD [KRT12_Y429_Y429C] please
Response given: M

Challenge: Entry DLAGRYYALRS [CKB_Y173_K177R] please
Response given: H

Challenge: Entry EWKNNYPRLRE [OPA1_Y582] please
Response given: L

----------
Tested on: c-Abl (mouse)
EXPERIMENT_NOTES: phosphorylation enrichment, bacterial display (enrichment ratio); higher = better substrate or ligand; peptides without Tyr show the background
MEASUREMENT_TYPE: phosphorylation enrichment
Give a plain numeric answer without units written out.

[[record]]
sequence_entry = "DLDLTYIYPNI [PTEN_Y27]"
measured_result = 0.612


Challenge: API: value(readout=phosphorylation enrichment, system=c-Abl (mouse)) for record VYSTDCYRVGG [NTRK2_Y706_Y706C]
Response given: 0.808

Challenge: Entry "IETGKYEILTE" please
Response given: 0.807

Challenge: Entry PTFKHYANSTQ [SLC12A3_Y70_E68K_YF] please
Response given: 0.591

Challenge: Entry YGGRDYSLDEF [MYOF_Y1705] please
Response given: 0.809

----------
TARGET_OR_SYSTEM: Hck (UniProt P08631)
Sequence (P08631 whole entry, looked up): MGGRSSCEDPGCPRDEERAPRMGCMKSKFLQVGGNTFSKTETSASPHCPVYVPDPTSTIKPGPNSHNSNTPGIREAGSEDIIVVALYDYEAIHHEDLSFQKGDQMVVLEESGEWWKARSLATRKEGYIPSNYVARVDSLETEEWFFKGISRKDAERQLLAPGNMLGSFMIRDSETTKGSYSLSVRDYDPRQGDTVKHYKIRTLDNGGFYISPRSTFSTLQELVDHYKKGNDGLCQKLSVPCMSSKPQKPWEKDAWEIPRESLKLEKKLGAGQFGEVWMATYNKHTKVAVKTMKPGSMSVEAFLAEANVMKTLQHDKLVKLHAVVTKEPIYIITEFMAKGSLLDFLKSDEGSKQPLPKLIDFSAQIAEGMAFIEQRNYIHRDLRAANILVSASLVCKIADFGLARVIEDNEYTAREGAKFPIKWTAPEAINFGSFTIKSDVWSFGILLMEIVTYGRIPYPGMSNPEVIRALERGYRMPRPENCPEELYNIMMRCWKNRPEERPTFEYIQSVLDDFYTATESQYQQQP
EXPERIMENT_NOTES: phosphorylation enrichment, bacterial display (enrichment ratio); higher = better substrate or ligand; peptides without Tyr show the background
Range-based classes on measured phosphorylation enrichment: low end = under 0.5, middle = from 0.5 up to 0.7, high end = 0.7 and over

For orientation, consider the following solved cases.
[[record]]
sequence_entry = "WRRLIYRCQVG [NR2E3_Y81_R76W]"
answer_label = "low end"

[[record]]
sequence_entry = "EPGSLYGCGGG [ATM_Y2019_D2016G]"
answer_label = "high end"

[[record]]
sequence_entry = "RSYSPCDYQPC [TNS1_Y796_Y796C]"
answer_label = "high end"


Challenge: Please classify: SQDSAYHSGIQ [FLG_Y3940]
Response given: middle

Challenge: Entry LIEQAYDNPHE [PRPF8_Y871] please
Response given: high end

Challenge: Entry ATATDYHTTSH [SLC4A1_Y46] please
Response given: low end

Challenge: Entry SIKDKYVTAFF [KCNH2_Y611_L615F_YF] please
Response given: low end

Challenge: Entry TRSYDYTEGGD [FGF7_Y58_M59T] please
Response given: low end

Challenge: Entry PLLLSYYLIKW [NUP160_Y773] please
Response given: middle

Challenge: Entry LSVEIYDRREF [ITGB7_Y753_YF] please
Response given: high end

Challenge: Entry VKGGAYNPVTV [MCCC2_Y145_Y146N] please
Response given: low end

Challenge: Entry ESDYTYSSSYE [SRPK2_Y427] please
Response given: high end

Challenge: Entry CGQDPYIRELG [UROS_Y19] please
Response given: middle

Challenge: Entry VIKDKYPKAHF [APTX_Y209_R213H_YF] please
Response given: low end

Challenge: Entry LEVPLYKNGVK [CPS1_Y1069_A1065E] please
Response given: middle

Challenge: Entry TEDELYQLSLQ [RASGRP2_Y378] please
Response given: high end

Challenge: Entry HYEDGYPGGSD [CTNND1_Y221] please
Response given: middle

Challenge: Entry RFLRGYRQDAY [HLA-A_Y137] please
Response given: high end

Challenge: Entry LKETGYVVERP [BCLAF1_Y466] please
Response given: low end

Challenge: Entry ADKSVYLMGLN [MYH7_Y386_A385V] please
Response given: low end

Challenge: Entry IKNPQYFSDAC [NTRK1_Y496_E492K] please
Response given: low end

----------
System: AncSZ
EXPERIMENT_NOTES: phosphorylation enrichment, bacterial display (enrichment ratio); higher = better substrate or ligand; peptides without Tyr show the background
Label scheme for phosphorylation enrichment: lower than 1 is 0, 1 and above is 1.

[[record]]
sequence_entry = "QFKGKYLAKHN [CASK_Y712_D710G_YF]"
target_or_system = "AncSZ"
answer_label = 1

[[record]]
sequence_entry = "CDDGKYVFVVT [RPS6KA3_Y488_Y483C_YF]"
target_or_system = "AncSZ"
answer_label = 1

[[record]]
sequence_entry = "ARLEFYENEKK [IRS1_Y47_YF]"
target_or_system = "AncSZ"
answer_label = 1

[[record]]
sequence_entry = "RSDEDYLYREE [POR_Y573]"
target_or_system = "AncSZ"
answer_label = 1

[[record]]
sequence_entry = "SSVAGYACLAY [MVD_Y131_A128V]"
target_or_system = "AncSZ"
answer_label = 0


Challenge: Check if phosphorylation enrichment >= 1 (inclusive). Item: AGIKAYQSCLQ [ADGRA2_Y377_T375K]
Response given: 0

Challenge: Entry RREWYYEVIIA [BACE1_Y260_V265A] please
Response given: 1

Challenge: Entry YLNSSYINIST [IL23R_Y178_T175N] please
Response given: 0

Challenge: Entry ETEMLYGSAPR [PRC1_Y464] please
Response given: 0

Challenge: Entry NGTVTYAIIAG [CDH23_Y1672_V1675I] please
Response given: 1
